These measurements were taken from ChEMBL document CHEMBL1944626.

Target desc: Epidermal growth factor receptor (Homo sapiens)
Sequence (P00533 whole entry): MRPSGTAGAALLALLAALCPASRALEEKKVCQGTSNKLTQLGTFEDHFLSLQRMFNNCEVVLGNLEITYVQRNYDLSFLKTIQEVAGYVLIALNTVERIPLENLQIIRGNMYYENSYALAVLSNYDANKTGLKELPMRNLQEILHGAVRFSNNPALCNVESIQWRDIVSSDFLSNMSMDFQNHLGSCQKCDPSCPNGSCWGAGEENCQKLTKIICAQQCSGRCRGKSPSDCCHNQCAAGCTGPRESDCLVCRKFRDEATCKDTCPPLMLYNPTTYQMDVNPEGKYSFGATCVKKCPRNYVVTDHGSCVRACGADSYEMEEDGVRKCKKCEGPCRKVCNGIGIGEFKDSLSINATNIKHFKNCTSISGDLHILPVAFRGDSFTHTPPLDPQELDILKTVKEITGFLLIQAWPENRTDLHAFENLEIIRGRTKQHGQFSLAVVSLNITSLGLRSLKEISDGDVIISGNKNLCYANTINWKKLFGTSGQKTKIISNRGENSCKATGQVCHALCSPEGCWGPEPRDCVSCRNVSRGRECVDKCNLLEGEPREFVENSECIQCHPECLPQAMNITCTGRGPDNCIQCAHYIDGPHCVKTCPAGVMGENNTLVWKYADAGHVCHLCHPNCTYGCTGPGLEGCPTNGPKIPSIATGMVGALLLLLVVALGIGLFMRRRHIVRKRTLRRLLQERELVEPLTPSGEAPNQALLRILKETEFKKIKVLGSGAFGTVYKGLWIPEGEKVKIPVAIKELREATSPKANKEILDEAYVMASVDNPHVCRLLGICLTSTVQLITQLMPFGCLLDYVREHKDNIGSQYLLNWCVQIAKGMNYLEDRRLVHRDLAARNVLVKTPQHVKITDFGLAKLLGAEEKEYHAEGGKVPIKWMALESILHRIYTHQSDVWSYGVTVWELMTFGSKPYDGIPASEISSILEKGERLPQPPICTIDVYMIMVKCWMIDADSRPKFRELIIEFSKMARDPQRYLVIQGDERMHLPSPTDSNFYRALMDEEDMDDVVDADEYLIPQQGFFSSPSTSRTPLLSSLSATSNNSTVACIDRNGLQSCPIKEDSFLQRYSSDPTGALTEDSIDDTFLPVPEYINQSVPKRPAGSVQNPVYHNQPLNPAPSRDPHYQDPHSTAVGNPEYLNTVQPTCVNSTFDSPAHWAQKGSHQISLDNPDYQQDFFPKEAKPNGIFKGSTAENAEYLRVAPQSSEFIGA
Measurement description: Inhibition of autophosphorylation of recombinant His-tagged EGFR expressed in baculovirus infected Sf9 cells after 1 hr by DELFIA/time-resolved fluorimetry assay
Measured metric: IC50 (µM)

Example entries begin here.
                               smiles_data  assay_value
0   O=C(NS(=O)(=O)c1ccc(F)cc1)c1cncc(Br)c1         3.27
1       Cc1ccc(S(=O)(=O)NC(=O)c2cccnc2)cc1         24.8
2    O=C(NS(=O)(=O)c1ccc(Cl)cc1)c1cccnc1Cl         19.8
3   Cc1ccc(C(=O)NS(=O)(=O)c2ccccc2)c(Cl)n1         21.6
4    O=C(NS(=O)(=O)c1ccc(Br)cc1)c1cccnc1Cl         15.7
5  O=C(NS(=O)(=O)c1ccc(Br)cc1)c1ccc(Cl)nc1         29.1

[a] O=C(NS(=O)(=O)c1ccc(Cl)cc1)c1ccc(Cl)nc1
[b] O=C(NS(=O)(=O)c1ccc(F)cc1)c1cccnc1Cl
[c] Cc1ccc(C(=O)NS(=O)(=O)c2ccc(Br)cc2)c(Cl)n1
Lookup: Order these by IC50, descending, and give the full ranking. Labels, requested order.
Found: b, a, c
(b: 28.7 µM, a: 18.1 µM, c: 2.64 µM)

[A] O=C(NS(=O)(=O)c1ccc(Cl)cc1)c1cccnc1
[B] Cc1ccc(S(=O)(=O)NC(=O)c2ccc(C)nc2Cl)cc1
Lookup: Field: entry with larger IC50 (options A / B ). Identify your pick by its label.
Found: A
(A: 25.4 µM, B: 15 µM)

====

Target desc: UniProt:P00533
Measurement description: Inhibition of autophosphorylation of recombinant His-tagged EGFR expressed in baculovirus infected Sf9 cells after 1 hr by DELFIA/time-resolved fluorimetry assay
Measured metric: IC50 (µM)

>>> print(df.to_string())
                               smiles_data     target_desc  measured_metric  units_symbol  assay_value
0     Cc1ccc(S(=O)(=O)NC(=O)c2cccnc2Cl)cc1  UniProt:P00533             IC50            µM           27
1   Cc1ccc(S(=O)(=O)NC(=O)c2cncc(Br)c2)cc1  UniProt:P00533             IC50            µM         12.1
2  O=C(NS(=O)(=O)c1ccc(Cl)cc1)c1cncc(Br)c1  UniProt:P00533             IC50            µM         0.09

[I] Cc1ccc(C(=O)NS(=O)(=O)c2ccc(Cl)cc2)c(Cl)n1
[II] O=C(NS(=O)(=O)c1ccc(Br)cc1)c1cncc(Br)c1
Lookup: Sorting ascending by IC50, which comes first: I or II ? Answer by stating the label of the chosen item.
Found: I
